Here the recorded GI50 is given for each entry.
tested on: NCI-H226 lung; experiment: NCI tumour cell line growth inhibition, 48 h

Endpoint output: GI50 of CC(=O)[CH-]C(=O)c1ccccc1.CC(=O)[CH-]C(=O)c1ccccc1.CC(C)CCC[C@H](C)C1CCC2[C@@H]3CC=C4C[C@@H]([O-])CC[C@]4(C)C3CC[C@@]21C.CC(C)CCC[C@H](C)C1CCC2[C@@H]3CC=C4C[C@@H]([O-])CC[C@]4(C)C3CC[C@@]21C.Cl.[Ti+4] (stereo partly specified) . Value?
> 25 µM

Endpoint output: GI50 of COc1cc(/C=C/C(=O)N2CCC=CC2=O)cc(OC)c1OC . Value?
2.41 µM

Endpoint output: GI50 of Nc1nnnc2nc[nH]c12 . Value?
1.05 µM

Endpoint output: GI50 of ClCc1ccc(Cn2cnc3c(Cl)ncnc32)cc1 . Value?
12.7 µM

Endpoint output: GI50 of CC(c1ccccc1)[C@@H](C(=O)Nc1ccc(I)cc1F)N1C(=O)N[C@H](c2ccc(OC[C@H](O)CO)cc2)C1=O (stereo partly specified) . Value?
14.5 µM

Endpoint output: GI50 of Cc1ccc(-c2nc3cc(Cl)c(Cl)cc3nc2C#N)cc1 . Value?
> 100 µM

====

Here the recorded GI50 is given for each entry.
test system: TK-10 renal; experiment: NCI tumour cell line growth inhibition, 48 h

Would you please look over these solved cases?
>>> print(df.to_string())
                                   compound       val
0  CCN(CC)CCN1C(=O)C2C3C(=O)CC(C)(CC3C)C2C1=O (stereo not given)  > 100 µM
1  Cc1ccc(/C=C/c2c(C(=O)/C=C/c3ccc(Cl)cc3)c(C)nc3ccccc23)cc1   2.53 µM
2  CCN(CC)c1ccc2nc3c4ccccc4c(=O)cc-3n(-c3ccccc3)c2c1   1.77 µM
3  CCCCCCCCCCCCCCCCCCOc1ccccc1CC(=O)OCC[N+](CC)(CC)CC   1.45 µM
4  CCOC(=O)/C(C#N)=C1\SS/C(=C(/C#N)C(=O)OCC)S1   6.81 µM
5  O=C(Nc1cccc(-n2cc(-c3ccncc3)c(-c3ccc(O)c(Cl)c3)n2)c1)c1cc(C(F)(F)F)cc(C(F)(F)F)c1   10.9 µM
6           ClCc1ccc(Cn2cnc3c(Cl)ncnc32)cc1   11.3 µM
7        Cc1ccc(Cl)cc1NC(=O)c1cc2ccccc2cc1O  0.948 µM

Report GI50 for COc1cccc(C2=C(c3cn(C)c4cc(F)ccc34)C(=O)NC2=O)c1 tested on TK-10 renal.
> 16.9 µM

Report GI50 for CCCCCC[C@@H](C)Nc1nc2ccccc2c2occc12 tested on TK-10 renal.
10 µM

====

tested on: KM20L2 colon; assay: NCI tumour cell line growth inhibition, 48 h
EXPERIMENTAL_READOUT: TGI

Would you please look over these solved cases?
>>> print(df.to_string())
                                   compound  experimental_target  experimental_readout       val
0  COc1cc(C2C(C(=O)Nc3ccc([N+](=O)[O-])cc3)=C(C)NC(C)=C2C(=O)Nc2ccc([N+](=O)[O-])cc2)ccc1O         KM20L2 colon                   TGI   34.7 µM
1  CC(NC1CCCC[C@H]1O)c1ccccc1 (stereo partly specified)         KM20L2 colon                   TGI  > 100 µM
2       CCOC(=O)c1cnc2c(ccc3[nH]cccc32)c1=O         KM20L2 colon                   TGI  > 100 µM

Endpoint output: TGI of O=C1C2c3[nH]c4ccccc4c3C3CCCCCC3C2C(=O)N1c1ccccc1 (stereo unspecified) . Value?
> 100 µM

Endpoint output: TGI of Cc1nc(N)c(-c2ccccc2)s1 . Value?
> 100 µM

Endpoint output: TGI of CC1(C)OCN(c2ccc(S(N)(=O)=O)cc2)Cn2c1nc1ccccc12 . Value?
> 100 µM

Endpoint output: TGI of COc1ccc(S(=O)(=O)N[C@H](C(=O)O)c2ccccc2)cc1 . Value?
> 100 µM

Endpoint output: TGI of CC12C(=C(C#N)C(=N)N1c1ccc(Cl)c(Cl)c1)C=C(O)CC2SCCS(=O)(=O)O (stereo unspecified) . Value?
> 100 µM

Endpoint output: TGI of COc1cc2c(cc1O)CN1CCC23C=C[C@@H](O)CC13 (stereo partly specified) . Value?
> 100 µM

Endpoint output: TGI of CC(=O)OCC1OC(OCc2ccccc2)C(Br)C(OC(C)=O)C1OC(C)=O (stereo unspecified) . Value?
> 100 µM

Endpoint output: TGI of COc1ccc2c(c1)[n+](=O)c(C(=O)C/C(=N/NC(=O)C[N+](C)(C)C)C(=O)Nc1cccc(C)c1C)c(C)n2O . Value?
> 100 µM

Endpoint output: TGI of CC1CCC(=O)C(C(O)CC2CC(=O)N(c3ccccc3)C(=O)C2)C1 (stereo unspecified) . Value?
> 100 µM

Endpoint output: TGI of O=C(CO[N+](=O)[O-])OC/C=C/c1ccccc1 . Value?
> 100 µM

Endpoint output: TGI of COc1cc(-c2ccc(NC(=O)SCCC(=O)O)cc2OC)ccc1NC(=O)SCCC(=O)O . Value?
> 100 µM

Endpoint output: TGI of COc1cc(C2c3cc4c(cc3[C@@H](Nc3ccc(Oc5ccccc5)cc3)C3COC(=O)[C@H]23)OCO4)cc(OC)c1O (stereo partly specified) . Value?
> 24.3 µM

Endpoint output: TGI of COc1cc(/C=C/c2ccc(Br)cc2)cc(OC)c1OC . Value?
29.8 µM
